target: D2S dopamine receptor (D2S) (Homo sapiens, UniProt P14416); construct: expressed in transfected cells; host or cells: HEK-293 cells (membrane fractions); assay: Competitive radioligand binding assay, D2S (agonist radioligand); settings: compound at 10 μM; [3H]7-OH-DPAT 1 nM; human recombinant (HEK-293 cells); read-out: % Inhibition of Binding at Each Transporter or Receptor Target, D2S
Sequence (P14416 1-414 isoform P14416-2): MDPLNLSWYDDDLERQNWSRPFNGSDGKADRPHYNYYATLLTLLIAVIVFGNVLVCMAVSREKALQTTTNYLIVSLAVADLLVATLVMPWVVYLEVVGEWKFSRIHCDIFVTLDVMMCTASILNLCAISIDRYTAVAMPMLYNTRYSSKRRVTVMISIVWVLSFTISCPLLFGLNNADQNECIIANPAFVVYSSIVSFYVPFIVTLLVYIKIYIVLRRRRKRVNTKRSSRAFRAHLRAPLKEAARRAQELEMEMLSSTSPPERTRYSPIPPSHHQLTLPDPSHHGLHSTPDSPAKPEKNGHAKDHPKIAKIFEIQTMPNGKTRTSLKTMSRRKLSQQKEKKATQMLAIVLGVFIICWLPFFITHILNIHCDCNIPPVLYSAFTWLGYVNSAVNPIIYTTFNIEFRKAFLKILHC
Where a name gives a salt, the structure may show the parent alone.
Entries and their inhibition at 10 µM values follow.
Endpoint Label: inhibition at 10 µM (%)

{"columns": ["Compound", "Numeric Result"],
 "data": [
  ["NC(=O)OC[C@H](N)Cc1ccccc1 [APC, (R)-2-amino-3-phenylpropyl carbamate, reference compound]", 4.4],
  ["N[C@@H](COS(N)(=O)=O)Cc1ccccc1 [Compound 9, hydrochloride]", 39.5],
  ["NC(=O)CC[C@H](N)Cc1ccccc1 [Compound 4, hydrochloride]", -6],
  ["NC(=S)OC[C@H](N)Cc1ccccc1 [Compound 8, dihydrochloride]", 27.4],
  ["NC(=O)NC[C@H](N)Cc1ccccc1 [Compound 3, hydrochloride]", -0.7],
  ["NC(=O)SC[C@H](N)Cc1ccccc1 [Compound 10, hydrochloride]", 90]
]}

====

Biological target: norepinephrine transporter (NET) (Homo sapiens, UniProt P23975)
Construct: expressed in transfected cells; host or cells: CHO cells (membrane fractions)
Sequence (P23975 whole entry): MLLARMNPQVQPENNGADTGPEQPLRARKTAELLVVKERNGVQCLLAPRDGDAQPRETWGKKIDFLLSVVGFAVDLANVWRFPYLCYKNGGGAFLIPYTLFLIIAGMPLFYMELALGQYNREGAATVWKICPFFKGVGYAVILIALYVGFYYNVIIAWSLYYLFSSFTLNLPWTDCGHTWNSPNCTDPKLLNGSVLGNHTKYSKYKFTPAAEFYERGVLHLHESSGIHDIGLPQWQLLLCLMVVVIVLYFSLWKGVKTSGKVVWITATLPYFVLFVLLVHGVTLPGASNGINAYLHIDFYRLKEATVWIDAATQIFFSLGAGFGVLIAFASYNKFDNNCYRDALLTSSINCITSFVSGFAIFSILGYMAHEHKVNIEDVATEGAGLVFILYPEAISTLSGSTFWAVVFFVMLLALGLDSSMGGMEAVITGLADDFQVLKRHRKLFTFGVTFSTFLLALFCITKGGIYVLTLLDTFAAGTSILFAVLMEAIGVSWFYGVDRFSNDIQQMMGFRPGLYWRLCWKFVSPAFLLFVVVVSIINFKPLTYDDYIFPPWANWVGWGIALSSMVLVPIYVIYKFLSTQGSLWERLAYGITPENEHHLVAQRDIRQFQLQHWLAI
Experiment: Competitive radioligand binding assay, norepinephrine transporter (antagonist radioligand)
Details: Norepinephrine transporter; compound at 10 μM; 1st individual result; read-out: % inhibition of control specific binding, 1st
Procedure: Compounds of the invention were tested for pharmacological activity in comparison to APC. Eight binding assays were carried out to provide a binding profile for each compound, including binding to dopamine transporter (DAT), norepinephrine transporter (NET), serotonin (5-HT) transporter (SERT), alpha2A adrenergic receptor (Alpha2A), alpha2C adrenergic receptor (Alpha2C), D2S dopamine receptor (D2S), D2L dopamine receptor (D2L), and vesicular monoamine transporter (VMAT2). […]
Structures can show the parent of a compound that is named as a salt.
Rule: measured inhibition at 10 µM below 30% gets label 1; anything equal to or greater than 30% gets label 0.

{"columns": ["Compound", "Class"],
 "data": [
  ["NC(=O)OC[C@H](N)Cc1ccccc1 [APC, (R)-2-amino-3-phenylpropyl carbamate, reference compound]", "label 1"],
  ["NC(=O)NC[C@H](N)Cc1ccccc1 [Compound 3, hydrochloride]", "label 0"],
  ["NC(=O)CC[C@H](N)Cc1ccccc1 [Compound 4, hydrochloride]", "label 1"],
  ["N[C@@H](COS(N)(=O)=O)Cc1ccccc1 [Compound 9, hydrochloride]", "label 1"],
  ["NC(=O)SC[C@H](N)Cc1ccccc1 [Compound 10, hydrochloride]", "label 0"]
]}

====

biological target: dopamine transporter (DAT) (Homo sapiens, UniProt Q01959); construct: expressed in transfected cells; host or cells: CHO cells (membrane fractions); experiment: Competitive radioligand binding assay, dopamine transporter (antagonist radioligand); details: Dopamine transporter; compound at 10 μM; mean; read-out: % inhibition of control specific binding, Mean
Sequence (Q01959 whole entry): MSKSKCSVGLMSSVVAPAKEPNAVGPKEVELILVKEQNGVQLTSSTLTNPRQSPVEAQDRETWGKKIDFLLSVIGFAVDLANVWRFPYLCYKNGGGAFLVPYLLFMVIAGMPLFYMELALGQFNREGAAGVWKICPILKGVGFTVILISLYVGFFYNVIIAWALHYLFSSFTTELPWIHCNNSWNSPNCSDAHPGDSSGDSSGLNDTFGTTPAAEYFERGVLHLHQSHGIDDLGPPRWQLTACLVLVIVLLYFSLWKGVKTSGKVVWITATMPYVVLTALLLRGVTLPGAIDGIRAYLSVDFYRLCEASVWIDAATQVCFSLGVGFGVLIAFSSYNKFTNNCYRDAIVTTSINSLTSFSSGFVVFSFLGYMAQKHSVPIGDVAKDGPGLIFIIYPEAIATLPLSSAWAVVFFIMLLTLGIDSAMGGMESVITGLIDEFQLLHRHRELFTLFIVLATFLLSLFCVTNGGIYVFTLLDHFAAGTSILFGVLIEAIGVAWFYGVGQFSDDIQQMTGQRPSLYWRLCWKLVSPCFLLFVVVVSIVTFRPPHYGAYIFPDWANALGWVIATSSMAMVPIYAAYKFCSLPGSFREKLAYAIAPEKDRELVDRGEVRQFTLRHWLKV
Counter-ions that a name gives are not always drawn.
# if measured inhibition at 10 µM < 80%: Y  # else: N

{"columns": ["Compound", "Class"],
 "data": [
  ["NC(=O)CC[C@H](N)Cc1ccccc1 [Compound 4, hydrochloride]", "Y"],
  ["NC(=O)NC[C@H](N)Cc1ccccc1 [Compound 3, hydrochloride]", "N"],
  ["N[C@@H](COS(N)(=O)=O)Cc1ccccc1 [Compound 9, hydrochloride]", "Y"],
  ["NC(=O)SC[C@H](N)Cc1ccccc1 [Compound 10, hydrochloride]", "N"]
]}
